# credit: ChEMBL document CHEMBL3046827

- Tested on: Staphylococcus aureus
- measurement_protocol: Antibacterial activity against Staphylococcus aureus after 24 hr by two-fold serial dilution method
- Format: functional
MIC under 100 µg/mL gets t, anything at or over 100 µg/mL gets f.

Here's what some known entries look like.
compound="CN[C@@H]1[C@H](O[C@H]2[C@H](O[C@H]3[C@H](O)[C@@H](O)[C@H](N=C(N)N)[C@@H](O)[C@@H]3N=C(N)N)O[C@@H](C)[C@]2(O)C=O)O[C@@H](CO)[C@H](O)[C@H]1O [STREPTOMYCIN]" tested_target="Staphylococcus aureus" assigned_label=t
compound="COc1ccc(C2C(C)C(=O)C(C)C(c3ccc(OC)cc3)N2C(=O)CCl)cc1 (stereo unspecified)" tested_target="Staphylococcus aureus" assigned_label=t
compound="CC1C(=O)C(C)C(c2ccc(Cl)cc2)N(C(=O)CCl)C1c1ccc(Cl)cc1 (stereo unspecified)" tested_target="Staphylococcus aureus" assigned_label=t
compound="COc1ccc(C2CC(=O)C(C)C(c3ccc(OC)cc3)N2C(=O)CCl)cc1 (stereo unspecified)" tested_target="Staphylococcus aureus" assigned_label=t
compound="CCC1C(=O)CC(c2ccc(Cl)cc2)N(C(=O)CCl)C1c1ccc(Cl)cc1 (stereo unspecified)" tested_target="Staphylococcus aureus" assigned_label=t

Query :: Determine if Cc1ccc(C2C(C)C(=O)C(C)C(c3ccc(C)cc3)N2C(=O)CCl)cc1 (stereo unspecified) shows MIC strictly lower than 100 µg/mL.
Result :: f

Query :: How about O=C1CC(c2ccccc2)N(C(=O)CCl)C(c2ccccc2)C1 (stereo unspecified) ?
Result :: f

Query :: How about CC1C(=O)CC(c2ccc(Cl)cc2)N(C(=O)CCl)C1c1ccc(Cl)cc1 (stereo unspecified) ?
Result :: t

----------
Overview of recorded MIC for various compounds
- Test system: Rhizopus
- measurement_protocol: Antifungal activity against Rhizopus sp. after 72 to 96 hr by two-fold serial dilution method
- Format: functional
// units = µg/mL; emit number, no label

Here is how some compounds turned out for MIC.
compound="CC1C(=O)CC(c2ccc(Cl)cc2)N(C(=O)CCl)C1c1ccc(Cl)cc1 (stereo not given)" measured_result=25
compound="COc1ccc(C2CC(=O)C(C)C(c3ccc(OC)cc3)N2C(=O)CCl)cc1 (stereo not given)" measured_result=25
compound="CC1C(=O)C(C)C(c2ccc(Cl)cc2)N(C(=O)CCl)C1c1ccc(Cl)cc1 (stereo not given)" measured_result=100
compound="Cc1ccc(C2CC(=O)C(C)C(c3ccc(C)cc3)N2C(=O)CCl)cc1 (stereo not given)" measured_result=50
compound="CC(C)C1C(=O)CC(c2ccccc2)N(C(=O)CCl)C1c1ccccc1 (stereo not given)" measured_result=100
compound=C[C@@H]1[C@H](O)[C@@H](C)/C=C/C=C/C=C/C=C/C=C/C=C/C=C/[C@H](O[C@@H]2O[C@H](C)[C@@H](O)[C@H](N)[C@@H]2O)C[C@@H]2O[C@](O)(C[C@@H](O)C[C@@H](O)[C@H](O)CC[C@@H](O)C[C@@H](O)CC(=O)O[C@H]1C)C[C@H](O)[C@H]2C(=O)O measured_result=25

Query :: # get_value(readout='MIC', item= CCC1C(=O)CC(c2ccc(Cl)cc2)N(C(=O)CCl)C1c1ccc(Cl)cc1 (stereo not given) )
Result :: 50

----------
- System: Cryptococcus neoformans
- measurement_protocol: Antifungal activity against Cryptococcus neoformans after 72 to 96 hr by two-fold serial dilution method
- Assay type: functional
measured_metric: MIC (µg/mL)
// units = µg/mL; emit number, no label

molecule="CC1C(=O)C(C)C(c2ccc(Cl)cc2)N(C(=O)CCl)C1c1ccc(Cl)cc1 (stereo not given)" measured_metric=MIC value_units=µg/mL measured_result=50
molecule="COc1ccc(C2C(C)C(=O)C(C)C(c3ccc(OC)cc3)N2C(=O)CCl)cc1 (stereo not given)" measured_metric=MIC value_units=µg/mL measured_result=100
molecule="CCC1C(=O)CC(c2ccc(Cl)cc2)N(C(=O)CCl)C1c1ccc(Cl)cc1 (stereo not given)" measured_metric=MIC value_units=µg/mL measured_result=50

Query :: # get_value(readout='MIC', item= Cc1ccc(C2C(C)C(=O)C(C)C(c3ccc(C)cc3)N2C(=O)CCl)cc1 (stereo not given) )
Result :: 50

Query :: How about CC(C)C1C(=O)CC(c2ccccc2)N(C(=O)CCl)C1c1ccccc1 (stereo not given) ?
Result :: 200

Query :: How about COc1ccc(C2CC(=O)C(C)C(c3ccc(OC)cc3)N2C(=O)CCl)cc1 (stereo not given) ?
Result :: 100

Query :: How about Cc1ccc(C2CC(=O)C(C)C(c3ccc(C)cc3)N2C(=O)CCl)cc1 (stereo not given) ?
Result :: 25

Query :: How about C[C@@H]1[C@H](O)[C@@H](C)/C=C/C=C/C=C/C=C/C=C/C=C/C=C/[C@H](O[C@@H]2O[C@H](C)[C@@H](O)[C@H](N)[C@@H]2O)C[C@@H]2O[C@](O)(C[C@@H](O)C[C@@H](O)[C@H](O)CC[C@@H](O)C[C@@H](O)CC(=O)O[C@H]1C)C[C@H](O)[C@H]2C(=O)O [AMPHOTERICIN B] ?
Result :: 25

Query :: How about CC1C(=O)CC(c2ccccc2)N(C(=O)CCl)C1c1ccccc1 (stereo not given) ?
Result :: 100

Query :: How about CC1C(=O)CC(c2ccc(Cl)cc2)N(C(=O)CCl)C1c1ccc(Cl)cc1 (stereo not given) ?
Result :: 100

----------
Overview of recorded MIC for various compounds
- Tested on: Staphylococcus aureus
- measurement_protocol: Antibacterial activity against Staphylococcus aureus after 24 hr by two-fold serial dilution method
- Format: functional
// units = µg/mL; emit number, no label

Here is how some compounds turned out for MIC.
compound="Cc1ccc(C2CC(=O)C(C)C(c3ccc(C)cc3)N2C(=O)CCl)cc1 (stereo not drawn)" measured_result=100
compound="CC1C(=O)CC(c2ccccc2)N(C(=O)CCl)C1c1ccccc1 (stereo not drawn)" measured_result=100

Query :: Provide value of MIC for this record tested with Staphylococcus aureus: CC(C)C1C(=O)CC(c2ccccc2)N(C(=O)CCl)C1c1ccccc1 (stereo not drawn)
Result :: 100

----------
- Tested on: Rhizopus
- measurement_protocol: Antifungal activity against Rhizopus sp. after 72 to 96 hr by two-fold serial dilution method
- Type: functional
measured_metric: MIC
Kindly report the value followed by its unit.

Here is how some compounds turned out for MIC.
compound="COc1ccc(C2C(C)C(=O)C(C)C(c3ccc(OC)cc3)N2C(=O)CCl)cc1 (stereo not drawn)" tested_target=Rhizopus measured_metric=MIC measured_result="100 µg/mL"
compound="Cc1ccc(C2C(C)C(=O)C(C)C(c3ccc(C)cc3)N2C(=O)CCl)cc1 (stereo not drawn)" tested_target=Rhizopus measured_metric=MIC measured_result="25 µg/mL"

Alright, here's another compound for you.
Query :: # get_value(readout='MIC', item= CC1C(=O)CC(c2ccccc2)N(C(=O)CCl)C1c1ccccc1 (stereo not drawn) )
Result :: 100 µg/mL
